Reference source: ChEMBL document CHEMBL5625209

- ASSAY REMARKS: Cytotoxicity against MDCK cells by CCK-8 assay
- Type: toxicity, cell-based, Canis lupus familiaris
- PROTOCOL CONDITIONS: dog
Define the label as 1 when CC50 is strictly less than 70 µM and as -1 in all remaining cases.

Would you please look over these solved cases?
In [3]: df
Out[3]:
                           substance_smiles  class_assignment
0  CC(=O)Nc1ccc(NC(=S)NC(=O)c2cc3ccccc3s2)cc1                -1
1  CCc1ccc(C(=O)Nc2ccc(NC(=S)NC(=O)c3ccc(C(C)(C)C)cc3)cc2)cc1                -1
2  CC(C)(C)c1ccc(C(=O)NC(=S)Nc2ccc(C(F)(F)F)cc2C(F)(F)F)cc1                -1

Problem: hey, is CC50 for COc1ccccc1C(=O)Nc1ccc(NC(=S)NC(=O)c2ccc(C(C)(C)C)cc2)cc1 lower than 70 µM or not?
Solution: -1

Problem: Given COc1ccccc1NC(=S)NC(=O)c1ccc(C(C)(C)C)cc1 , is recorded CC50 strictly lower than 70 µM?
Solution: -1

Problem: Please indicate whether the reported CC50 of CC(C)(C)c1ccc(C(=O)NC(=S)Nc2ccc(NC(=O)c3ccc(Br)cc3)cc2)cc1 is strictly below 70 µM.
Solution: -1

Problem: A record lists CC(C)(C)c1ccc(C(=O)NC(=S)Nc2ccc(F)cc2F)cc1 . Is its CC50 below 70 µM?
Solution: -1

Problem: Is it true that CC50 reported for CC(C)(C)c1ccc(C(=O)NC(=S)Nc2ccc(NC(=O)c3ccc(Cl)cc3)cc2)cc1 is less than 70 µM?
Solution: -1

Problem: Could you please tell me whether CC50 recorded for CC(=O)Nc1ccc(NC(=S)NC(=O)c2cccs2)cc1 is less than 70 µM?
Solution: 1

Problem: Decide: CC50 of CC(C)(C)c1ccc(C(=O)NC(=S)Nc2ccc(-n3cncn3)cc2)cc1 strictly below 70 µM?
Solution: 1

Problem: Answer whether the molecule CC(=O)Nc1ccc(NC(=S)NC(=O)c2ccc(C(C)C)cc2)cc1 has CC50 strictly less than 70 µM
Solution: 1

Problem: For this molecule, is CC50 lower than 70 µM? Cc1ccc(C(=O)Nc2ccc(NC(=S)NC(=O)c3ccc(C(C)(C)C)cc3)cc2)cc1
Solution: -1

Problem: Please indicate whether the reported CC50 of O=C(NC(=S)Nc1ccccc1F)c1cc2ccccc2s1 is strictly below 70 µM.
Solution: -1

Problem: Record CC(C)(C)c1ccc(C(=O)NC(=S)Nc2ccc(N)cc2)cc1 : is its CC50 strictly below 70 µM?
Solution: -1

* * *

- ASSAY REMARKS: Cytotoxicity against MDCK cells by CCK-8 assay
- Assay type: toxicity, cell-based, Canis lupus familiaris
- PROTOCOL CONDITIONS: dog
MEASURE NAME: CC50 (µM)
Return type: number; implicit unit µM.

                           substance_smiles  measure_name  value_observed
0  CC(C)(C)c1ccc(C(=O)NC(=S)Nc2c(Br)cccc2Br)cc1          CC50            70.9
1  COc1ccc(C(=O)Nc2ccc(NC(=S)NC(=O)c3ccc(C(C)(C)C)cc3)cc2)cc1          CC50            72.2
2  CCCCCc1ccc(C(=O)Nc2ccc(NC(=S)NC(=O)c3ccc(C(C)(C)C)cc3)cc2)cc1          CC50            77.2

Problem: Value lookup for CC50; key = CC(C)(C)c1ccc(C(=O)NC(=S)Nc2ccccc2Br)cc1
Solution: 85.1
